Items are presented alongside their recorded Lym.
organism: Rattus norvegicus; assay: Open TG-GATES - Regimen: Daily Repeat; format: toxicity, organism-based, Sprague-Dawley; set-up: regimen Daily Repeat, gender Male, age 6 weeks; details: in vivo, po, 0 mg/kg, […], tissue Blood, route gavage, dose level Control, time 7 day

{"COMPOUND": "CN(C)CCC=C1c2ccccc2COc2ccccc21 [DOXEPIN]", "READING UNIT": "%", "Lym": 75.4}
{"COMPOUND": "CC(C)N(CCC(C(N)=O)(c1ccccc1)c1ccccn1)C(C)C (stereo unspecified) [DISOPYRAMIDE]", "READING UNIT": "%", "Lym": 78}
{"COMPOUND": "O=NN(CCCl)C(=O)NC1CCCCC1 [LOMUSTINE]", "READING UNIT": "%", "Lym": 79.6}
{"COMPOUND": "CCc1oc2ccccc2c1C(=O)c1cc(Br)c(O)c(Br)c1 [BENZBROMARONE]", "READING UNIT": "%", "Lym": 80}
{"COMPOUND": "CN(C)C(=N)N=C(N)N [METFORMIN]", "READING UNIT": "%", "Lym": 77.8}
{"COMPOUND": "CCCCc1oc2ccccc2c1C(=O)c1cc(I)c(OCCN(CC)CC)c(I)c1 [AMIODARONE]", "READING UNIT": "%", "Lym": 78.4}
{"COMPOUND": "ClC(Cl)(Cl)Cl [CARBON TETRACHLORIDE]", "READING UNIT": "%", "Lym": 84.6}
{"COMPOUND": "CC1=C(CC(=O)O)c2cc(F)ccc2/C1=C\\c1ccc([S+](C)[O-])cc1 (stereo unspecified)", "READING UNIT": "%", "Lym": 81.2}
{"COMPOUND": "OCCOCCN1CCN(C(c2ccccc2)c2ccc(Cl)cc2)CC1 (stereo unspecified) [HYDROXYZINE]", "READING UNIT": "%", "Lym": 79.2}
{"COMPOUND": "CC[C@H]1[C@@H]2C[C@H]3[C@@H]4N(C)c5ccccc5[C@]45C[C@@H]([C@@H]2[C@H]5O)N3[C@@H]1O [AJMALINE]", "READING UNIT": "%", "Lym": 82.2}
{"COMPOUND": "CCC1(c2ccccc2)C(=O)NC(=O)NC1=O [PHENOBARBITAL]", "READING UNIT": "%", "Lym": 82.2}

---

organism: Rattus norvegicus; assay: Open TG-GATES - Regimen: Single; type: toxicity, organism-based, Sprague-Dawley; design: regimen Single, gender Male, age 6 weeks; conditions: in vivo, po, 0 mg/kg, 3 h, tissue Liver, route gavage, dose level Control
PROPERTY NAME: LIVER (g)

{"MOLECULE": "ClC(Cl)(Cl)Cl [CARBON TETRACHLORIDE]", "PROPERTY NAME": "LIVER", "REPORTED": 10}
{"MOLECULE": "CN(C)C(=N)N=C(N)N", "PROPERTY NAME": "LIVER", "REPORTED": 8.5}
{"MOLECULE": "CCc1oc2ccccc2c1C(=O)c1cc(Br)c(O)c(Br)c1", "PROPERTY NAME": "LIVER", "REPORTED": 10.1}
{"MOLECULE": "OCCOCCN1CCN(C(c2ccccc2)c2ccc(Cl)cc2)CC1 (stereo unspecified) [HYDROXYZINE]", "PROPERTY NAME": "LIVER", "REPORTED": 8.6}
{"MOLECULE": "CN(C)CCC=C1c2ccccc2COc2ccccc21 [DOXEPIN]", "PROPERTY NAME": "LIVER", "REPORTED": 8.7}
{"MOLECULE": "O=NN(CCCl)C(=O)NC1CCCCC1", "PROPERTY NAME": "LIVER", "REPORTED": 10}

# credit: ChEMBL document CHEMBL3885861
